# System: Mus musculus
# test-summary: Toxicity in ip dosed mouse assessed as optimum dose that providing maximum increase in life span administered qd for 1 to 5 days
# Type: organism-based
# experimental-setup: in vivo
test-readout: Activity (mg/kg)
Please respond with the number in mg/kg and leave the unit unwritten.

# example entries with known answers
compound | test-readout | unit-of-measure | measurement
CC(=O)N(c1ccc(Nc2c3ccc([N+](=O)[O-])cc3nc3c(C)cccc23)cc1)S(C)(=O)=O | Activity | mg/kg | 200
CCCCCC(=O)N(c1ccc(Nc2c3ccccc3nc3cc([N+](=O)[O-])ccc23)cc1)S(C)(=O)=O | Activity | mg/kg | 5
CCOC(=O)CCC(=O)N(c1ccc(Nc2c3ccccc3nc3c(C)cccc23)c(OC)c1)S(C)(=O)=O.CS(=O)(=O)O | Activity | mg/kg | 13.3
CCC(C)C(=O)N(c1ccc(Nc2c3ccccc3nc3cc(NC(C)=O)ccc23)cc1)S(C)(=O)=O.Cl (stereo not given) | Activity | mg/kg | 50
COC(=O)N(c1ccc(Nc2c3ccccc3nc3ccccc23)cc1)S(C)(=O)=O.Cl | Activity | mg/kg | 250

In: May I ask what Activity has been recorded for CS(=O)(=O)Nc1ccc(Nc2c3ccccc3nc3cc([N+](=O)[O-])ccc23)cc1 ?
Out: 25

In: What about this compound? Br.CCCCCCCCCC(=O)N(c1ccc(Nc2c3ccccc3nc3cc(NC(C)=O)ccc23)cc1)S(C)(=O)=O
Out: 50

In: What about this compound? CCCCCC(=O)N(c1ccc(Nc2c3ccccc3nc3c(C)cccc23)c(OC)c1)S(C)(=O)=O
Out: 66

In: What about this compound? CCCCC(=O)N(c1ccc(Nc2c3ccccc3nc3cc([N+](=O)[O-])ccc23)cc1)S(C)(=O)=O
Out: 26

In: What about this compound? CC(C)(C)C(=O)N(c1ccc(Nc2c3ccccc3nc3ccccc23)cc1)S(C)(=O)=O.Cl
Out: 250

In: What about this compound? CCC(=O)N(c1ccc(Nc2c3ccccc3nc3cc(NC(C)=O)ccc23)cc1)S(C)(=O)=O.Cl
Out: 40

In: What about this compound? CCCCCCCCC(=O)N(c1ccc(Nc2c3ccccc3nc3cc(N)ccc23)cc1)S(C)(=O)=O.Cl
Out: 2.5

In: What about this compound? CC(=O)N(c1ccc(Nc2c3ccccc3nc3ccccc23)cc1)S(C)(=O)=O.Cl
Out: 160

In: What about this compound? CC(=O)Nc1ccc2c(Nc3ccc(NS(C)(=O)=O)cc3)c3ccccc3nc2c1
Out: 13

In: What about this compound? CS(=O)(=O)Nc1ccc(Nc2c3ccccc3nc3cc(N=[N+]=[N-])ccc23)cc1.Cl
Out: 16

In: What about this compound? Br.CCCCCCCCCCC(=O)N(c1ccc(Nc2c3ccccc3nc3cc(NC(C)=O)ccc23)cc1)S(C)(=O)=O
Out: 30
